Molecular target: T1, human PD-L1-HIS tagged recombinant protein (human, UniProt Q9NZQ7 19-238)
T1 construct: also called hPD-L1-HIS; PD-L1 HIS tagged protein
T1 sequence (Q9NZQ7 19-238 limits assumed): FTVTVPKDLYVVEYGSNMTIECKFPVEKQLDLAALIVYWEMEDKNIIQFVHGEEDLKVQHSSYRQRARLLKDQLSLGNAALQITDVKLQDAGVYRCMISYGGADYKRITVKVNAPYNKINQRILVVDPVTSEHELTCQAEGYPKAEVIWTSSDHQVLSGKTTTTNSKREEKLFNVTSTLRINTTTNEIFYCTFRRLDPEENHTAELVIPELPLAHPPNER
Assay: SPR, IgG on Protein A, PD-L1-HIS analyte
measured-quantity: Kd (nM)
Numbers only; they are read as nM.

Below are worked cases with known answers.
binder	measured-quantity	unit-name	measured-value
anti-PD-L1 IgG antibody 2018EP280-E04 (printed construct pair EP486/EP489) (antibody, V domains shown) VH: QVQLQQWGAGLLKPSETLSLTCAVYGGSFSGYYWSWIRQPPGKGLEWIGEINHIGSTNYNPSLKSRVTISVDTSNNQFSLKLSSVTAADTAVYYCARGRRLRYFDWAAYNWFDPWGQGTLVTVSS VL: QSALTQDPAVSVALGQTVRISCQGDSLRSHYASWYQQKPGQAPVVVVYDNSDRPSGIPDRFSGSNSGNTATLTISRVEVGDEADYYCQVWDSSSDHYVFGTGTKVTVLG	Kd	nM	2.76
anti-PD-L1 IgG1 antibody EP205/EP206 (2019EP69-F03) (antibody, V domains shown, also called EP206/EP205) VH: QVQLVQSGAEVKKPGSSVKVSCKASGGTFSSYAISWVRQAPGQGLEWMGGIIPIFGTANYAQKFQGRVTITADESTSTAYMELSSLRSEDTAVYYCARDKWYGSAWRGDYWGQGTLVTVSS VL: QSVLTQPPSASGTPGQRVTISCSGSYSNIGSNFVNWYQQLPGTAPKLLIHFNNQRPSGVPDRFSGSRSGTSASLAISGLQSEDEADYFCSTWDDSLKGPIFGGGTKLTVLG	Kd	nM	0.363
anti-PD-L1 IgG antibody EP480/EP481 (2018EP164-F04) (antibody, V domains shown) VH: QVQLQQWGAGLLKPSETLSLTCAVYGGSFSGYYWSWIRQPPGKGLEWIGEINHSGSTNYNPSLKSRVTISVDTSKNQFSLKLSSVTAADTAVYYCARGRRLRYFDWAAYNWFDPWGQGTLVTVSS VL: QSALTQDPAVSVALGQTVRITCQGDSLRSHYASWYQQKPGQAPVVVVYDNSDRPSGIPDRFSGSNSGNTATLTISRVEVGDEADYYCQVWDSSSDHYVFGTGTKVEIRT	Kd	nM	5.73

Now look at this entry.
Query: Reported Kd for anti-PD-L1 IgG antibody EP488/EP489 (2018EP171-H02) (antibody, V domains shown) VH: QVQLVQSGAEVKKPGSSVKVSCKASGGTFSSYAISWVRQAPGQGLEWMGGIIPIFGTANYAQKFQGRVTITADESTSTAYMELSSLRSEDTAVYYCARDKGYGSGWRGDYWGQGTLVTVSS VL: QSVLTQPPSASGTPGQRVTISCSGSYSNIGSNFVNWYQQLPGTAPKLLIHFNNQRPSGVPDRFSGSRSGTSASLAISGLQSEDEADYFCSTWDDSLKGPIFGGGTKLTVLG : what is it?
Response: 9.5
